Tested on: L1210 leukemia ip in BDF1 mice, survival T/C
ASSAY_DETAILS: NCI In Vivo Anticancer Drug Screen. Data for tumor model L1210 Leukemia (intraperitoneal) in B6D2F1 (BDF1) mice
RUN_CONDITIONS: endpoint: mean survival time; dose: 150.0 mg/kg/injection; schedule: Q01DX001 (ip); vehicle: Klucel (hydroxypropylcellulose) (HPC); higher = longer survival
Inconclusive results and toxic doses are left out.
Give measured T/C for each item. Keep answers brief.

Worked cases, T/C given:
                         chemical_structure   value_reported
0  COc1ccc(-n2c(=O)c(N=Nc3ccccc3C)c(O)n(-c3ccccc3OC)c2=S)cc1  92 % of control
1  O=C1c2cc([N+](=O)[O-])ccc2-c2c1cccc2[N+](=O)[O-]  98 % of control
2                CN=Cc1ccc([N+](=O)[O-])cc1  91 % of control

Here's the next entry for you.
## Task Fill blank: measured T/C of the compound CCCCOC(=O)c1ccccc1C(=O)OC1CCCCC1 is ____.
## Result 103 % of control

###

Tested on: L1210 leukemia ip in BDF1 mice, survival T/C
ASSAY_DETAILS: NCI In Vivo Anticancer Drug Screen. Data for tumor model L1210 Leukemia (intraperitoneal) in B6D2F1 (BDF1) mice
RUN_CONDITIONS: endpoint: mean survival time; dose: 200.0 mg/kg/injection; schedule: Q04DX003 (ip); vehicle: saline with Tween-80; higher = longer survival
Toxic doses and inconclusive results are not listed.
Consider the following compounds; for each one, report its T/C.

Previously resolved entries follow.
                         chemical_structure                        measurement_target    value_reported
0             CC(C)(NC(=O)OCc1ccccc1)C(=O)O  L1210 leukemia ip in BDF1 mice, survival T/C   95 % of control
1                      N#Cc1ccc[n+]([O-])c1  L1210 leukemia ip in BDF1 mice, survival T/C  101 % of control
2  Cc1ccc(C)c(Cc2c(C=O)[nH]c(=S)[nH]c2=O)c1  L1210 leukemia ip in BDF1 mice, survival T/C  101 % of control
3        COc1ccc(OC)c(NC(=O)Nc2ccc(O)cc2)c1  L1210 leukemia ip in BDF1 mice, survival T/C   98 % of control
4  O=c1c2ccccc2c2c3c1cccc3c1cccc3c(=O)c4ccccc4c2c31  L1210 leukemia ip in BDF1 mice, survival T/C  101 % of control

Record T/C for all entries; do not skip any.
1. CC(=O)CC(=O)NCCCc1ccccc1
2. O=C1CNC(=O)N1c1cccc(Cl)c1

## Result
["103 % of control", "100 % of control"]

###

Tested on: L1210 leukemia ip in BDF1 mice, survival T/C
ASSAY_DETAILS: NCI In Vivo Anticancer Drug Screen. Data for tumor model L1210 Leukemia (intraperitoneal) in B6D2F1 (BDF1) mice
RUN_CONDITIONS: endpoint: mean survival time; dose: 100.0 mg/kg/injection; schedule: Q01DX009 (ip); vehicle: saline with Tween-80; higher = longer survival
Inconclusive results and toxic doses are left out.
QUANTITY_MEASURED: T/C

Known results for compounds:
>>> print(df.to_string())
                                   compound  quantity_measured   value_reported
0  COC1(c2ccc([N+](=O)[O-])o2)OC1(C)C (configuration not stated)                T/C  98 % of control
1       c1ccc(-c2nc(N3CCOCC3)nc3ccccc23)cc1                T/C  94 % of control
2    O=C1c2ccccc2C(=O)N1N1C(=O)c2ccccc2C1=O                T/C  96 % of control

Dear colleague, could you send me T/C for each of the items below? Thanks.
1. NC(=O)c1csc(CCNC(=O)c2ccccc2)n1
2. COc1ccc(CCCC(C)(C)O)cc1
3. COc1cc(/C=C/C=C/C(=O)N2CCCCC2)ccc1O
4. Nc1ccnc(Cl)c1N
5. Cc1ccc(S(=O)(=O)Nc2ccc3ncsc3c2[N+](=O)[O-])cc1
6. C=CCOc1ccccc1OC
7. Cc1[nH]c2ccc(N(C)C)cc2c(=O)c1Cc1c(C)[nH]c2ccc(N(C)C)cc2c1=O

## Result
100 % of control
97 % of control
88 % of control
111 % of control
108 % of control
100 % of control
94 % of control

Okay, here is my list. What is T/C for each of these?
1. O=C(NCCCl)N1C(=O)NC(=O)C1(c1ccccc1)c1ccccc1
2. C[C@H](CCC[C@H](C)OS(=O)(=O)c1ccccc1)OS(=O)(=O)c1ccccc1

## Result
1. 96 % of control
2. 109 % of control

###

Can you tell me T/C for the items I'm about to list?
Test system: L1210 leukemia ip in BDF1 mice, survival T/C
ASSAY_DETAILS: NCI In Vivo Anticancer Drug Screen. Data for tumor model L1210 Leukemia (intraperitoneal) in B6D2F1 (BDF1) mice
RUN_CONDITIONS: endpoint: mean survival time; dose: 200.0 mg/kg/injection; schedule: Q01DX001 (ip); vehicle: saline; higher = longer survival
Procedure: The antitumor activity of compounds was measured in mice bearing transplantable tumors. Survival or tumor size were measured and the results are expressed as the measurement made in the treated group (T) divided by the measurement made in the vehicle treated control group (C). The tumor model used in this assay is L1210 Leukemia (intraperitoneal) in B6D2F1 (BDF1) mice
Inconclusive results and toxic doses are left out.

As a guide, the following entries are already answered.
In [3]: df
Out[3]:
                                   compound  quantity_measured    value_reported
0  NC(=O)N/N=C1\CCCC(CCC(=O)O)C1 (stereo not drawn)                T/C  108 % of control
1                   COc1cc(=O)n2cc(C)ccc2n1                T/C   95 % of control
2          COc1ccc2c(c1)Cc1c-2nc2ccccc2c1Cl                T/C   96 % of control
3                           O=S1(=O)CC(O)C1                T/C   94 % of control
4  Cc1nc(N)[nH]c(=O)c1CCCNS(=O)(=O)c1ccc(CN)cc1                T/C   98 % of control

Need T/C for each of these compounds.
1. NNc1ccccc1
2. COC(=O)C1=NN(c2ccccc2)CC1
3. Nc1nc(N)c(C=O)c(Nc2ccc(I)cc2)n1
4. CC(C)(C)/C([O-])=N/[N+](C)(C)Cc1ccccc1
5. CCCCCCCCCCNC(=S)NNC(=O)CCCC(=O)NNC(=S)NCCCCCCCCCC
6. COc1ccc(CCN(CC(=O)O)S(=O)(=O)c2ccc(C)cc2)cc1OC
7. CCN(CC)CCCC(C)n1nnc2cc(Cl)ccc21 (stereo not drawn)

## Result
["111 % of control", "106 % of control", "123 % of control", "98 % of control", "90 % of control", "100 % of control", "97 % of control"]

## Task Item: CCOP(=O)(O)Cc1c(Cl)c(Cl)c(CP(=O)(O)OCC)c(Cl)c1Cl Test system: L1210 leukemia ip in BDF1 mice, survival T/C Read-out: T/C Value: ?
## Result 104 % of control

###

Tested on: L1210 leukemia ip in BDF1 mice, survival T/C
ASSAY_DETAILS: NCI In Vivo Anticancer Drug Screen. Data for tumor model L1210 Leukemia (intraperitoneal) in B6D2F1 (BDF1) mice
RUN_CONDITIONS: endpoint: mean survival time; dose: 12.5 mg/kg/injection; schedule: Q01DX009 (ip); vehicle: saline
Inconclusive results and toxic doses are left out. Rule as the data show it: active = T/C of 150% or more; inactive = T/C below 125%.
Respond using exactly one of the listed classes: true (1) (active), false (0) (inactive)

Example entries begin here.
>>> print(df.to_string())
                                   compound  category_label
0  O=C(Nc1ccc([N+](=O)[O-])cc1)Nc1ccc([N+](=O)[O-])c(C(F)(F)F)c1       false (0)
1  CC1(C)C2CCC([CH2][Hg][Cl])C1C2 (configuration not stated)       false (0)

## Task What is the recorded call for this compound in the test? O=C(/C=N/O)/C=N/O (tested in a mixture with another compound)
## Result false (0)

## Task How was CCC(=O)NC1=C(N2CC2C)C(=O)C(NC(=O)CC)=C(N2CC2C)C1=O (configuration not stated) classified in this test?
## Result true (1)

## Task Record lookup: outcome of this test for Cc1ncc(CO)c(C)c1O ?
## Result false (0)

## Task In this assay, the call recorded for C=C(Br)CN(C)C(C)=O was what?
## Result false (0)

## Task // param item: CCN(CC)CCCOC(=O)/C=C/c1c(C)[nH]c(=O)[nH]c1=O ; yields the recorded call
## Result false (0)

These entries and their values trace back to PubChem BioAssay AID248.
